System: HepG2 cells
Assay notes: HepG2 MTT cytotoxicity assay
Run parameters: read-out: HepG2 cells (CC50, μM) 72 h; Table 2; 72 h co-incubation; MTT
Measured endpoint: CC50 (µM)
Write the value in µM as a bare number.

Per the reported HepG2 cells data, CC(=O)OC[C@H]1O[C@@H]([S-])[C@H](OC(C)=O)[C@@H](OC(C)=O)[C@@H]1OC(C)=O.CCP(CC)CC.[Au+] [AUR, Auranofin, reference compound] has CC50 of 2.94

----------
Test system: S. mansoni schistosomula
Assay notes: S. mansoni schistosomula high-throughput phenotype and motility screen (Roboworm), 72 h
Format: cell-based, Schistosoma mansoni
Run parameters: Schistosoma mansoni, Table 5, Series C; read-out: Anti-schistosomal activity EC50 Schistosomula (μM) Motility
Measured endpoint: EC50

1. O=[N+]([O-])c1ccc2nc(Nc3ccc(Cl)c(Cl)c3)c(Nc3ccc(Cl)c(Cl)c3)nc2c1 [Compound 22]
0.42 µM

EC50 recorded for this molecule, O=C(Nc1ccc2nc(Nc3ccc(Cl)c(Cl)c3)c(Nc3ccc(Cl)c(Cl)c3)nc2c1)c1ccco1 [Compound 22f] , is 2 µM

EC50 recorded for this molecule, CCCCCC(=O)Nc1ccc2nc(Nc3ccc(Cl)c(Cl)c3)c(Nc3ccc(Cl)c(Cl)c3)nc2c1 [Compound 22d] , is 1.8 µM

EC50 recorded for this molecule, Clc1ccc(Nc2nc3ccc(N4CCCC4)cc3nc2Nc2ccc(Cl)c(Cl)c2)cc1Cl [Compound 22b] , is > 10 µM
